Task for the reader: assign each of the following compounds its reported EC50.
target: Serine/threonine-protein kinase PIM (Homo sapiens, UniProt P11309+Q9P1W9+Q86V86); experiment: Inhibition of PIM in human KG1 cells assessed as reduction in pS6 level; format: cell-based

Below, each entry is followed by its recorded EC50 result.
{"columns": ["compound", "EC50"],
 "data": [
  ["NC(=O)c1cc(Cl)c2c(Cl)c(C#CC3CNCCO3)n([C@H]3CCCNC3)c2n1 (stereo in doubt; 29a)", "283 nM"],
  ["CC(C)(O)C#Cc1c(Cl)c2c(Cl)cc(C(N)=O)nc2n1[C@H]1CCCNC1", "36 nM"]
]}

Look up EC50 for the entries below, preserving their order.
1. CN1CC(C#Cc2c(Cl)c3c(Cl)cc(C(N)=O)nc3n2[C@H]2CCCNC2)CC1=O (some centres not stated)
2. COCC(C)(C)C#Cc1c(Cl)c2c(Cl)cc(C(N)=O)nc2n1[C@H]1CCCNC1
3. COCCC#Cc1c(Cl)c2c(Cl)cc(C(N)=O)nc2n1[C@H]1CCCNC1
4. NC(=O)c1cc(Cl)c2c(Cl)c(C#CC3CNCCO3)n([C@H]3CCCNC3)c2n1 (stereo in doubt; 29b)

Data returned:
128 nM
98 nM
27 nM
51 nM

Look up EC50 for the entries below, preserving their order.
1. CC(O)C#Cc1c(Cl)c2c(Cl)cc(C(N)=O)nc2n1[C@H]1CCCNC1 (some centres not stated)
2. NC(=O)c1cc(Cl)c2c(Cl)c(C#CC3CCOCC3)n([C@H]3CCCNC3)c2n1
3. CC(O)CC#Cc1c(Cl)c2c(Cl)cc(C(N)=O)nc2n1[C@H]1CCCNC1 (some centres not stated)
4. NC(=O)c1cc(Cl)c2c(Cl)c(C#CCCO)n([C@H]3CCCNC3)c2n1

Data returned:
13 nM
53 nM
32 nM
18 nM

Look up EC50 for the entries below, preserving their order.
1. CC1(CC#Cc2c(Cl)c3c(Cl)cc(C(N)=O)nc3n2[C@H]2CCCNC2)COC1
2. NC(=O)c1cc(Cl)c2c(Cl)c(C#CC3CCCO3)n([C@H]3CCCNC3)c2n1 (stereo in doubt; 20a)
3. CC(C)(C#N)CC#Cc1c(Cl)c2c(Cl)cc(C(N)=O)nc2n1[C@H]1CCCNC1

Data returned:
1: 33 nM; 2: 137 nM; 3: 90 nM
